Hey, just so you know, these numbers are from ChEMBL document CHEMBL6096723.

test: Half life in Sprague-Dawley rat at 50 mg/kg, iv measured upto 4 hrs by UPLC-MS/MS analysis; type: ADME, organism-based; details: in vivo
Measure: half-life (min)
Expressed in min, but write only the number.

Data request: Consider the compound O=C(/C=C/c1ccc(O)c(O)c1)CCCCc1ccccc1 and give its measured half-life.
Data returned: 39.4

* * *

test: Half life in Sprague-Dawley rat at 50 mg/kg, ip measured upto 4 hrs by UPLC-MS/MS analysis; type: ADME, organism-based; conditions: in vivo
Measure: half-life (min)
Your answer is read as min, so omit the unit and give the number.

Data request: For the compound shown here, O=C(/C=C/c1ccc(O)c(O)c1)CCCCc1ccccc1 , give the reported half-life.
Data returned: 21

* * *

test: Tmax in Sprague-Dawley rat at 50 mg/kg, po measured upto 4 hrs by UPLC-MS/MS analysis; format: ADME, organism-based; settings: in vivo
Measure: Tmax (min)
Provide the reading as a plain figure in min.

Data request: May I ask what Tmax has been recorded for O=C(/C=C/c1ccc(O)c(O)c1)CCCCc1ccccc1 ?
Data returned: 10.2

* * *

assay: Half life in Sprague-Dawley rat at 50 mg/kg, po measured upto 4 hrs by UPLC-MS/MS analysis; type: ADME, organism-based; conditions: in vivo
Measure: half-life (min)
Give your result in min as a bare value.

Data request: // lookup half-life for O=C(/C=C/c1ccc(O)c(O)c1)CCCCc1ccccc1
Data returned: 51

* * *

viability at 24 h, 10 µM overview
assay: Cytotoxicity against mouse NIH3T3 cells assessed as survival rate at 10 uM measured after 24 hrs by CCK-8 assay relative to control; type: toxicity, cell-based; settings: read-out: Survival
Just the number in %, nothing appended.

Solved cases below.
>>> assay_value("OC(CCc1ccccc1)CC(O)CCc1ccccc1 (stereo unspecified)")
101
>>> assay_value("CCCCCCCC(=O)NCc1ccc(OC)c(OC)c1")
103
>>> assay_value("CCCCCCCCCC(=O)NCc1ccc(O)c(O)c1")
121
>>> assay_value("COc1ccc(CCCCC(O)CCc2ccc(OC)c(O)c2)c(OC)c1 (stereo unspecified)")
114
>>> assay_value("O=C(/C=C/c1ccc(O)cc1)CC(O)/C=C/c1ccc(O)cc1 (stereo unspecified)")
101

Then this compound:
Data request: Which measured viability at 24 h, 10 µM value corresponds to CCCCCCCCC(=O)NCc1ccc(O)c(O)c1 ?
Data returned: 90.5

* * *

assay: Apparent volume of distribution in Sprague-Dawley rat at 50 mg/kg, iv measured upto 4 hrs by UPLC-MS/MS analysis; format: ADME, organism-based; settings: in vivo, read-out: Vz
Measure: Vd (L/kg)
Value expressed in L/kg; do not type the unit.

Data request: Fill blank: measured Vd of the compound O=C(/C=C/c1ccc(O)c(O)c1)CCCCc1ccccc1 is ____.
Data returned: 7.17

* * *

experiment: Cytotoxicity against mouse NIH3T3 cells assessed as survival rate at 10 uM measured after 24 hrs by CCK-8 assay relative to control; type: toxicity, cell-based; settings: read-out: Survival
Measure: viability at 24 h, 10 µM (%)
Give the value, in units of %, as a plain number.

>>> assay_value("CCCCC(=O)NCc1ccc(OC(C)=O)c(OC(C)=O)c1")
131

Lab note: next molecule to report on.
Data request: viability at 24 h, 10 µM for COc1ccc(CCC(=O)CCCCc2cccc(O)c2)cc1O ?
Data returned: 95.7
